Source listed as PubChem BioAssay AID1626.

test system: M. tuberculosis H37Rv growth inhibition; assay: M. tuberculosis H37Rv growth inhibitors, H37Rv strain (AID 1626); settings: measured here: Vero cell cytotoxicity
parameter_measured: CC50 (µM)
One number for each entry, in µM.

COc1cc2c(cc1OC)C1(Nc3c-2c(-c2ccccc2)nn3-c2ccccc2)C(=O)Nc2ccccc21 (configuration not stated) :: 23.7
Cc1cccn2c(=O)c3cc(C(=O)NCc4ccco4)c(=N)n(CCc4ccccc4)c3nc12 :: 18.8
CCCCCCCCCn1c2c(c(=N)c3c1CCC3)CCCC2 :: 7.25
O=C(Nc1nnc(-c2ccncc2)o1)c1ccc(Br)s1 :: 20.6

Look up CC50 for the entries below, preserving their order.
1. O=C(Nc1ccc(N2CCOCC2)c(Cl)c1)c1ccc([N+](=O)[O-])o1
2. Cc1sc2nc(-c3ccccn3)[nH]c(=O)c2c1-c1ccccc1
3. COc1cccc(-c2nc(-c3ccccc3)nc(N3CCN(C)CC3)c2C#N)c1
4. COc1ccc(Cn2c(SCc3ccc(C)cc3)nc3cc(OC)c(OC)cc3c2=N)cc1Cl

[A]
3.3
15.2
26.7
3.1

Look up CC50 for the entries below, preserving their order.
1. COCc1ccc(O)c2ncccc12
2. CCOC(=O)c1cnc(-n2nc(C)cc2C)nc1Nc1ccc(N(C)C)cc1
3. O=C(C=C=Nc1ccccc1)C(=O)N=C=Cc1ccccc1
4. Cn1c(-c2ccccc2)cc2c3no[n+]([O-])c3ccc21
5. O=C(COc1ccccc1[N+](=O)[O-])c1ccccc1

[A]
9.76
23.9
22.8
2.6
30

Look up CC50 for the entries below, preserving their order.
1. Nc1ncnc2c1ccn2[C@@H]1O[C@H](CO)[C@@H](O)[C@H]1O
2. COc1ccc(OCCn2c(NC(=O)c3ccco3)nc3ccccc32)cc1
3. S=c1[nH]cnc2scc(-c3ccc(Br)cc3)c12
4. O=C(Nc1nnc(-c2cccs2)o1)c1cccc(C(F)(F)F)c1

[A]
1: 0.131; 2: 33.2; 3: 34.8; 4: 20.6
